The measurements presented in this section are drawn from PubChem BioAssay AID493036.

# test_method_notes: NTR1-driven beta-arrestin-GFP spot formation – imaging, U2OS cells, high content, primary screen (AID 493036)
# assay_setup: agonist mode, measured here: cell count, cytotoxicity flag, at 20 µM
About 560 (0.17%) of roughly 330,000 compounds were called active. This is one part of a sample in which actives are shown more often than they occur.
The threshold is inclusive: cell count of exactly 60 cells counts as rule met; values below receive rule not met.

{"molecule": "COc1ccc(C)cc1NC(=O)C(Sc1ccccc1)c1ccccc1 (stereo unspecified)", "class_label": "rule not met"}
{"molecule": "Cc1cc(C)cc(NC(=O)COc2coc(CN3CCN(c4ccccc4)CC3)cc2=O)c1", "class_label": "rule not met"}
{"molecule": "CC(C)C(C)(C#N)NC(=O)CSc1nc2scc(-c3ccccc3)c2c(=O)[nH]1 (stereo unspecified)", "class_label": "rule met"}

Check the entry `COc1cccc(/C=N/Nc2cc(C)nc(-c3ccccc3O)n2)c1O` : does cell count equal or exceed 60 cells?
rule not met

Check the entry CCOC(=O)CSC1=C(C#N)C(c2ccco2)C(C(=O)OCc2ccccc2)=C(C)N1 (stereo unspecified) : does cell count equal or exceed 60 cells?
rule not met

Check the entry `CCCNC(=O)COc1coc(CN2CCN(Cc3ccccc3)CC2)cc1=O` : does cell count equal or exceed 60 cells?
rule not met

Check the entry CC1(C(=O)N/N=C/c2cc3c(cc2Br)OCO3)CC1(Br)Br (stereo unspecified) : does cell count equal or exceed 60 cells?
rule met

Check the entry `O=c1oc2ccccc2cc1-c1csc(Nc2ccc(O)cc2)n1` : does cell count equal or exceed 60 cells?
rule not met
